- SYSTEM_UNDER_TEST: Peregrin (Homo sapiens)
- Sequence (P55201 whole entry, the tested form may be a part): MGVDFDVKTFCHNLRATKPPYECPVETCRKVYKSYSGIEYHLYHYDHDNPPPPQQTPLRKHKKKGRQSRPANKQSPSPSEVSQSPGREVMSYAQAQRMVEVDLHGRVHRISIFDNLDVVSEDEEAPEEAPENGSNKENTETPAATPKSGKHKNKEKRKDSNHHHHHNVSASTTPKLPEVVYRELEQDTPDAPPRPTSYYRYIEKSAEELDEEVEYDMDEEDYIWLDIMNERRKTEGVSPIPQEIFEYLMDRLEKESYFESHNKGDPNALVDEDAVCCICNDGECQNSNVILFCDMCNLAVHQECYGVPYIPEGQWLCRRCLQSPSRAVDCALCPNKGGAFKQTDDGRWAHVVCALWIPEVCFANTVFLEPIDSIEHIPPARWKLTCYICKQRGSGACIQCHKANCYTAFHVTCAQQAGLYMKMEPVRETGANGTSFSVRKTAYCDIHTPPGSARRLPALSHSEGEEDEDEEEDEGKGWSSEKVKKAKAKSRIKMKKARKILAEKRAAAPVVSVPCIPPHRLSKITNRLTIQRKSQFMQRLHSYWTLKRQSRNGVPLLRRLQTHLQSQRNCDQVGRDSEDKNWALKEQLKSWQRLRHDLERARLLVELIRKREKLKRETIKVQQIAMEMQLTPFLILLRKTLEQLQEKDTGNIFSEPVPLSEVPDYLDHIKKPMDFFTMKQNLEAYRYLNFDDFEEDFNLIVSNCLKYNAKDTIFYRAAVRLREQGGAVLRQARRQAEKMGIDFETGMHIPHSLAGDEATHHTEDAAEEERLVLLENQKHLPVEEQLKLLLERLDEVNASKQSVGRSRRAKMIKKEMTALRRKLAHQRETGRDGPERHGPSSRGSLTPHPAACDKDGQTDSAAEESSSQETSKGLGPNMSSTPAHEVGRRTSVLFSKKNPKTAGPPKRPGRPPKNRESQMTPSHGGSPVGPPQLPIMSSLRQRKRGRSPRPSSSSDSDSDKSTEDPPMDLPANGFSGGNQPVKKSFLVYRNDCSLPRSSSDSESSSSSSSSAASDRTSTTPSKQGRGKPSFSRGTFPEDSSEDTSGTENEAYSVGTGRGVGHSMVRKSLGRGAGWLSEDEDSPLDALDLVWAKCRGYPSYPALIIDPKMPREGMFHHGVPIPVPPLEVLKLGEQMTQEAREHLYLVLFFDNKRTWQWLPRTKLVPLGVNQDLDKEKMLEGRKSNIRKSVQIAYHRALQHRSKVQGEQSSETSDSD
- EXPERIMENT_NOTES: Binding affinity to human partial length BRPF1 (E627 to G740 residues) expressed in bacterial expression system by BROMOscan assay
METRIC: Ki

Below, each entry is followed by its recorded Ki result.
C=CCc1c(NCc2ccccc2N2CCN(C)CC2)cnn(C)c1=O
> 10 µM
C=C[C@H](C)c1c(NCc2ccccc2N2CCN(C)CC2)cnn(C)c1=O
> 10 µM
CC/C=C/c1c(NCc2ccccc2N2CCN(C)CC2)cnn(C)c1=O
> 10 µM
CCCc1c(NCc2ccccc2N2CCN(C)CC2)cnn(C)c1=O
> 10 µM
CC(C)c1c(NCc2ccccc2N2CCN(C)CC2)cnn(C)c1=O
7.94 µM
CCc1c(NCc2ccccc2N2CCN(C)CC2)cnn(C)c1=O
6.31 µM
Cc1c(NCc2ccccc2N2CCN(C)CC2)cnn(C)c1=O
0.251 µM
CCCCc1c(NCc2ccccc2N2CCN(C)CC2)cnn(C)c1=O
> 31.6 µM
C/C=C\Cc1c(NCc2ccccc2N2CCN(C)CC2)cnn(C)c1=O
> 10 µM
C=CCCc1c(NCc2ccccc2N2CCN(C)CC2)cnn(C)c1=O
> 10 µM

[in] In one line, give reported Ki of the entry `CCCCCc1c(NCc2ccccc2N2CCN(C)CC2)cnn(C)c1=O` .
[out] > 10 µM

[in] Identify measured Ki corresponding to `C/C=C/Cc1c(NCc2ccccc2N2CCN(C)CC2)cnn(C)c1=O`
[out] > 10 µM

[in] Complete the entry with Ki for `C=C[C@@H](C)c1c(NCc2ccccc2N2CCN(C)CC2)cnn(C)c1=O`
[out] > 10 µM
